System: mice
Test: Forced swimming test;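 further: mice made to swim in a water-filled glass vessel under natural light, with durations of active swimming and immobility recorded across the 6 min session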
Conditions: 50 mg/kg, 6 min, control 318.0 ± 8.36
property: Total Time of Active Swimming (s)
Give your result in s as a bare value.

Reference set (3 entries):
Cc1nc(OCc2cn(CC(=O)N3CCN(c4nc(C)c5c(c4C#N)CC(C)(C)OC5)CC3)nn2)c(C#N)c2c1COC(C)(C)C2 [7m] :: 355.0
Cc1nc(N2CCN(C(=O)Cn3cc(COc4nc(C(C)C)c5c(c4C#N)CCC5)nn3)CC2)c(C#N)c2c1COC(C)(C)C2 [7a] :: 341.4
CCCc1nc(N2CCN(C(=O)Cn3cc(COc4nc(C)c5c(c4C#N)CC(C)(C)OC5)nn3)CC2)c(C#N)c2c1COC(C)(C)C2 [7o] :: 358.0

Query molecule follows.
Could you tell me which Total Time of Active Swimming is on file for CCCc1nc(OCc2cn(CC(=O)N3CCN(c4nc(CCC)c5c(c4C#N)CC(C)(C)OC5)CC3)nn2)c(C#N)c2c1COC(C)(C)C2 [7u] ?
276.0

----------
Test system: mouse
Test: Elevated plus maze (EPM) test
Format: in vivo
Conditions: 50 mg/kg i.p., 5 min, control 28.2 ± 3.12
Rule: Time Spent in the Center below 50 s gives yes (1). Equal to or above 50 s gives no (0).

Cc1nc(N2CCN(C(=O)Cn3cc(COc4nc(-c5ccco5)c5c(c4C#N)CCCC5)nn3)CC2)c(C#N)c2c1COC(C)(C)C2 :: yes (1)
CCCc1nc(N2CCN(C(=O)Cn3cc(COc4nc(CC)c5c(c4C#N)CC(C)(C)OC5)nn3)CC2)c(C#N)c2c1COC(C)(C)C2 :: no (0)
CCc1nc(N2CCN(C(=O)Cn3cc(COc4nc(C(C)C)c5c(c4C#N)CCCC5)nn3)CC2)c(C#N)c2c1COC(C)(C)C2 :: yes (1)
CCCc1nc(OCc2cn(CC(=O)N3CCN(c4nc(CCC)c5c(c4C#N)CC(C)(C)OC5)CC3)nn2)c(C#N)c2c1COC(C)(C)C2 :: yes (1)

Problem: For the compound CCCc1nc(N2CCN(C(=O)Cn3cc(COc4nc(C(C)C)c5c(c4C#N)CCC5)nn3)CC2)c(C#N)c2c1COC(C)(C)C2 , is Time Spent in the Center under 50 s?
yes (1)

Problem: For the compound Cc1nc(N2CCN(C(=O)Cn3cc(COc4nc(C(C)C)c5c(c4C#N)CCC5)nn3)CC2)c(C#N)c2c1COC(C)(C)C2 , is Time Spent in the Center under 50 s?
yes (1)

Problem: For the compound CCCc1nc(N2CCN(C(=O)Cn3cc(COc4nc(C)c5c(c4C#N)CC(C)(C)OC5)nn3)CC2)c(C#N)c2c1COC(C)(C)C2 , is Time Spent in the Center under 50 s?
no (0)

----------
System: mouse
Experiment: Elevated plus maze (EPM) test
Type: in vivo
Details: 50 mg/kg i.p., 5 min, control 269.2 ± 10.4
property: Time Spent in Closed Arms (s)
Give your result in s as a bare value.

CCc1nc(OCc2cn(CC(=O)N3CCN(c4nc(CC)c5c(c4C#N)CC(C)(C)OC5)CC3)nn2)c(C#N)c2c1COC(C)(C)C2 :: 225.2
CCCc1nc(N2CCN(C(=O)Cn3cc(COc4nc(CC)c5c(c4C#N)CC(C)(C)OC5)nn3)CC2)c(C#N)c2c1COC(C)(C)C2 :: 210.4
CCCc1nc(N2CCN(C(=O)Cn3cc(COc4nc(C)c5c(c4C#N)CC(C)(C)OC5)nn3)CC2)c(C#N)c2c1COC(C)(C)C2 :: 229.0
CCc1nc(N2CCN(C(=O)Cn3cc(COc4nc(C(C)C)c5c(c4C#N)CCCC5)nn3)CC2)c(C#N)c2c1COC(C)(C)C2 :: 246.6

Query molecule follows.
Could you tell me which Time Spent in Closed Arms is on file for Cc1nc(N2CCN(C(=O)Cn3cc(COc4nc(C(C)C)c5c(c4C#N)CCC5)nn3)CC2)c(C#N)c2c1COC(C)(C)C2 ?
262.6
